- Organism: Rattus norvegicus
- assay-details: Inhibition of galactitol accumulation in rat lens incubated in presence of 50 mM glucose
- Format: functional, organism-based
- test-context: Lens of camera-type eye
parameter-measured: pIC50
In simple prose, pIC50 is minus the logarithm base ten of a concentration in moles per litre.

- compound: "COc1ccc2c(C(=S)N(C)CC(=O)O)cccc2c1C(F)(F)F [TOLRESTAT]"
  observed-value: 6.00

Proceeding to the next compound to report its pIC50.
Item: COC(=O)N(CC(=O)O)C(=O)c1c(F)ccc2c(C(F)(F)F)c(OC)ccc12 | pIC50: 6.47

----------
- System: Rattus norvegicus
- assay-details: In vivo inhibition of galactitol accumulation in diaphragm of rat at 25 mg/kg/day
- Assay type: functional
parameter-measured: inhibition in vivo at 25 mg/kg/day (%)
Answer in %, number only, no unit symbol.

Sample answers from the record:
- compound-structure-string: "COc1ccc2c(C(=S)N(C)CC(=O)O)ccc(F)c2c1C(F)(F)F"
  parameter-measured: "inhibition in vivo at 25 mg/kg/day"
  observed-value: 90
- compound-structure-string: "COc1ccc2c(C(=S)N(C)CC(=O)O)cccc2c1Br"
  parameter-measured: "inhibition in vivo at 25 mg/kg/day"
  observed-value: 90
- compound-structure-string: "COc1ccc2c(C(=S)N(C)CC(=O)O)c(F)ccc2c1C(F)(F)F"
  parameter-measured: "inhibition in vivo at 25 mg/kg/day"
  observed-value: 93

Moving on to another molecule below.
Briefly, inhibition in vivo at 25 mg/kg/day measured for CCOC(=O)N(CC(=O)O)C(=O)c1c(F)ccc2c(C(F)(F)F)c(OC)ccc12 : 65
